# Test system: Staphylococcus epidermidis
# ASSAY NOTES: Antibacterial activity against Staphylococcus epidermidis ATCC 12228 assessed as growth inhibition after 24 hrs
# Type: functional
# CONDITION SUMMARY: Staphylococcus epidermidis, ATCC 12228, 24 h
Overview of recorded MIC90 for various substances
Please reply with the bare figure in µg/mL and do not write the unit itself.

H-NGVQPKYRWWRWWRRWWWW-NH2; 91

API: value(readout=MIC90, system=Staphylococcus epidermidis) for record H-NGVQPKYRWWRWWRRWW-NH2
23

Same thing, different substance: H-NGVQPKYKWWKWWKKWW-NH2
23

Same thing, different substance: H-NGVQPKYRWWRWWRRWW-OH
23

Same thing, different substance: H-NGVQPKYKWWKWWKKWWW-NH2
23

Same thing, different substance: H-NGVQPKYRWWRWWRRWWW-OH
91

Same thing, different substance: H-NGVQPWYKWWKWWKKWW-NH2
91
